species: Oryctolagus cuniculus; experiment: Concentration required to reduce 50% of maximum platelet aggregation caused by PAF in platelet rich plasma from rabbit in vitro; assay type: functional
assay.metric: pEC50
// pEC50: -log10(molar conc.)

In: Name the reported pEC50 value associated with the compound C=C(COC(=O)CCCCCC[n+]1ccsc1)COC(=O)NCCCCCCCCCCCCCCCCCC.[Br-]
Out: 6.60

In: Name the reported pEC50 value associated with the compound C=C(COC(=O)CCCCC[n+]1ccccc1)COC(=O)NCCCCCCCCCCCCCCCCCC.[Br-]
Out: 6.30
